Catalogue of kon readings, one per entry.
MEASUREMENT_TARGET: T1, sIL-6R (soluble IL-6 receptor; SBH Sciences) (human, UniProt P08887 20-365)
T1 construct: also called human IL-6R
T1 sequence: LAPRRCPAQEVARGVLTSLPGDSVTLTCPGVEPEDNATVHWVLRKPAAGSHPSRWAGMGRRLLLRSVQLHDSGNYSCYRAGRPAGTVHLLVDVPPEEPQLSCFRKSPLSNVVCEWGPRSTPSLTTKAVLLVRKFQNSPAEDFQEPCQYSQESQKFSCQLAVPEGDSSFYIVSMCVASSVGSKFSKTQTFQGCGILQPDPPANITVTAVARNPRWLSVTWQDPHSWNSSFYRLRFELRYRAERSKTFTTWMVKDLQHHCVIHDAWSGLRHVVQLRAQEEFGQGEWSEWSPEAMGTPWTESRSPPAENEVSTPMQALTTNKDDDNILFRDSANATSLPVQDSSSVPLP
ASSAY_INFO: SPR (BIAcore 3000), antibody on chip, sIL-6R analyte, 25 C
Entry rule: numbers only, all in M⁻¹ s⁻¹.

Recorded kon, per entry:
228# (antibody, human IgG1, kappa, V domains shown, also called Sample # 228) VH: QVQLQESGPGLVRPSQTLSLTCTVSGYSITSDHAWSWVRQPPGRGLEWIGYISYSGMTTYNPSLKSRVTMLRDTSKNQFSLRLSSVTAADTAVYYCARCLARMTAIDFWGQGSLVTVSS VL: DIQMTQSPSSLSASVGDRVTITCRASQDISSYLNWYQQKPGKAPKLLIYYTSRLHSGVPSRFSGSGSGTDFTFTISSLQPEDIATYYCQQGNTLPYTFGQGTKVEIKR
149000
209# (antibody, human IgG1, kappa, V domains shown, also called Sample # 209) VH: QVQLQESGPGLVRPSQTLSLTCTVSGYSITSDHAWSWVRQPPGRGLEWIGFISYSGMTTYNPSLKSRVTMLRDTSKNQFSLRLSSVTAADTAVYYCARSLARITAIDFWGQGSLVTVSS VL: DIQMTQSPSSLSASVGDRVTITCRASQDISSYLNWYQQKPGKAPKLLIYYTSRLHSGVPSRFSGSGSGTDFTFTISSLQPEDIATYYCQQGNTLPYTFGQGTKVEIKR
204000
219# (antibody, human IgG1, kappa, V domains shown) VH: QVQLQESGPGLVRPSQTLSLTCTVSGYSITSDHAWSWVRQPPGRGLEWIGYISYSGITTYNPSLKSRVTMLRDTSKNQFSLRLSSVTAADTAVYYCARCLARMTAIDFWGQGSLVTVSS VL: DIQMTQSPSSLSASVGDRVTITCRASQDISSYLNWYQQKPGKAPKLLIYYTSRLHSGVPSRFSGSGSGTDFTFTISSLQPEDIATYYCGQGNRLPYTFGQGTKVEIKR
121000
245# (antibody, human IgG1, kappa, V domains shown) VH: QVQLQESGPGLVRPSQTLSLTCTVSGYSITSDHAWSWVRQPPGRGLEWIGYISYSGMITYNPSLKSRVTMLRDTSKNQFSLRLSSVTAADTAVYYCARTLARMTAMDYWGQGSLVTVSS VL: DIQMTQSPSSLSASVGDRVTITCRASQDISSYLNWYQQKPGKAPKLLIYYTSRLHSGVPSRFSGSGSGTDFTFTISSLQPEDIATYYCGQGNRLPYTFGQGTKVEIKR
141000
222# (antibody, human IgG1, kappa, V domains shown, also called Sample # 222) VH: QVQLQESGPGLVRPSQTLSLTCTVSGYSITSDHAWSWVRQPPGRGLEWIGYISYSGMITYNPSLKSRVTMLRDTSKNQFSLRLSSVTAADTAVYYCARCLARMTAMDYWGQGSLVTVSS VL: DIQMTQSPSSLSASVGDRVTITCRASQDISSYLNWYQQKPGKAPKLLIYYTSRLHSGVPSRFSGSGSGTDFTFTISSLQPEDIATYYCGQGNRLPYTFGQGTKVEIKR
128000

The binder 237# (antibody, human IgG1, kappa, V domains shown, also called Sample # 237) VH: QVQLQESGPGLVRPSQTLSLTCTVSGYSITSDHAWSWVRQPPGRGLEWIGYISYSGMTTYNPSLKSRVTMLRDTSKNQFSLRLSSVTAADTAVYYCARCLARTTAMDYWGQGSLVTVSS VL: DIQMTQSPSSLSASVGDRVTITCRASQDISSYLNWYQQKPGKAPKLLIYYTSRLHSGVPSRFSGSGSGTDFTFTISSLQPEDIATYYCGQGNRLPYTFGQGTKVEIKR showed kon equal to 166000

The binder 241# (antibody, human IgG1, kappa, V domains shown) VH: QVQLQESGPGLVRPSQTLSLTCTVSGYSITSDHAWSWVRQPPGRGLEWIGYISYSGMTTYNPSLKSRVTMLRDTSKNQFSLRLSSVTAADTAVYYCARCLARMTAIDFWGQGSLVTVSS VL: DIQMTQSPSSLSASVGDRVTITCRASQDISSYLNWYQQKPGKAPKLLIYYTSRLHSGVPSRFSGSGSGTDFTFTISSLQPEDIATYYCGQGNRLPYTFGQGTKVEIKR showed kon equal to 179000

The binder 55# (antibody, human IgG1, kappa, V domains shown, also called Sample # 55) VH: QVQLQESGPGLVRPSQTLSLTCTVSGYSITSDHAWSWVRQPPGRGLEWIGFISYSGMITYNPSLKSRVTMLRDTSKNQFSLRLSSVTAADTAVYYCARCLARTTAMDYWGQGSLVTVSS VL: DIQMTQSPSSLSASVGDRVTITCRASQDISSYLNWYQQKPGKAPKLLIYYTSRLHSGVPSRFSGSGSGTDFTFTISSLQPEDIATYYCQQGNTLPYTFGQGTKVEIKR showed kon equal to 187000

The binder 229# (antibody, human IgG1, kappa, V domains shown) VH: QVQLQESGPGLVRPSQTLSLTCTVSGYSITSDHAWSWVRQPPGRGLEWIGYISYSGMITYNPSLKSRVTMLRDTSKNQFSLRLSSVTAADTAVYYCARSLARMTAIDFWGQGSLVTVSS VL: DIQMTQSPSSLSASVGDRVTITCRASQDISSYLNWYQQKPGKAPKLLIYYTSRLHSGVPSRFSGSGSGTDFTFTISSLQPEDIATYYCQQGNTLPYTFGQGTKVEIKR showed kon equal to 124000

The binder 227# (antibody, human IgG1, kappa, V domains shown, also called Sample # 227) VH: QVQLQESGPGLVRPSQTLSLTCTVSGYSITSDHAWSWVRQPPGRGLEWIGYISYSGMITYNPSLKSRVTMLRDTSKNQFSLRLSSVTAADTAVYYCARSLARATAMDYWGQGSLVTVSS VL: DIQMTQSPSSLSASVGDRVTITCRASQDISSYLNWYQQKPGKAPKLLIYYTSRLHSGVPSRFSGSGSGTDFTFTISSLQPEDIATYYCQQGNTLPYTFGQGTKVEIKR showed kon equal to 144000
